Assay: Pharmacokinetics in ICR mice, plasma drug concentrations
Type: in vivo
Conditions: ICR, iv; i.v. 2 mg/kg, mouse plasma
Method: The pharmacokinetics were further tested of Example 4 and Example 7 disclosed herein and Example 61-1 (Comparative Example 1) in patent WO2013020993 in ICR mice. A single intravenous injection (dose of 2 mg/kg) and a single oral administration (dose of 10 mg/kg) were taken respectively. Blood collection point: before administration, 5 min, 15 min, 30 min, 1 h, 2 h, 4 h, 8 h, 12 h, 24 h after administration. […]
Readout: Cmax (ng/mL)
Give bare numbers, in ng/mL.

{"Compound structure": "NC1(CNc2nc(N3CCS(=O)(=O)c4ccccc4C3)nc3ccc(C(F)F)cc23)COC1", "Cmax (ng/mL)": 815}

Kindly consider the entry below.
Item under review: NC1CN(c2nc(N3CCS(=O)(=O)c4ccccc4C3)nc3ccc(C(F)F)cc23)C1 . Reported Cmax?
82.4

* * *

Could you please report measured concentration at 1 h for the items listed next?
test: Pharmacokinetics in ICR mice, plasma drug concentrations; type: in vivo; conditions: mouse, plasma, po; p.o. 10 mg/kg, 1 hour, ICR mice
Answers are plain numbers, in ng/mL.

{"Compound structure": "NC1(CNc2nc(N3CCS(=O)(=O)c4ccccc4C3)nc3ccc(C(F)F)cc23)COC1", "Unit descriptor": "ng/mL", "concentration at 1 h": 180}

Kindly consider the entry below.
Item under review: NC1CN(c2nc(N3CCS(=O)(=O)c4ccccc4C3)nc3ccc(C(F)F)cc23)C1 . Reported concentration at 1 h?
432

* * *

assay: Pharmacokinetics in ICR mice, plasma drug concentrations; type: in vivo; conditions: ICR, iv; i.v. 2 mg/kg, mouse plasma
Could you please report measured Tmax for the items listed next?
One number for each entry, in h.

{"Compound structure": "NC1CN(c2nc(N3CCS(=O)(=O)c4ccccc4C3)nc3ccc(C(F)F)cc23)C1", "Tmax, h": 4}

Kindly consider the entry below.
Item under review: NC1(CNc2nc(N3CCS(=O)(=O)c4ccccc4C3)nc3ccc(C(F)F)cc23)COC1 . Reported Tmax?
0.08

* * *

assay: Pharmacokinetics in ICR mice, plasma drug concentrations; format: in vivo; details: ICR, po; p.o. 10 mg/kg, mouse plasma
Readout: Tmax
I'd appreciate it if you wrote the number followed by its unit.

{"Compound structure": "NC1CN(c2nc(N3CCS(=O)(=O)c4ccccc4C3)nc3ccc(C(F)F)cc23)C1", "Tmax": "2 h"}

Kindly consider the entry below.
Item under review: NC1(CNc2nc(N3CCS(=O)(=O)c4ccccc4C3)nc3ccc(C(F)F)cc23)COC1 . Reported Tmax?
0.5 h

* * *

assay: Pharmacokinetics in ICR mice, plasma drug concentrations; format: in vivo; conditions: mouse, plasma, iv; i.v. 2 mg/kg, 0.25 hour, ICR mice
Could you please report measured concentration at 0.25 h for the items listed next?
I'd appreciate it if you wrote the number followed by its unit.

{"Compound": "NC1CN(c2nc(N3CCS(=O)(=O)c4ccccc4C3)nc3ccc(C(F)F)cc23)C1 [Example 4]", "Reading": "38.4 ng/mL"}

Kindly consider the entry below.
Item under review: NC1(CNc2nc(N3CCS(=O)(=O)c4ccccc4C3)nc3ccc(C(F)F)cc23)COC1 [Example 7] . Reported concentration at 0.25 h?
540 ng/mL

* * *

Assay: Pharmacokinetics in ICR mice, plasma drug concentrations
Type: in vivo
Details: ICR, iv; i.v. 2 mg/kg, mouse plasma; read-out: AUC0-12
Description: The pharmacokinetics were further tested of Example 4 and Example 7 disclosed herein and Example 61-1 (Comparative Example 1) in patent WO2013020993 in ICR mice. A single intravenous injection (dose of 2 mg/kg) and a single oral administration (dose of 10 mg/kg) were taken respectively. Blood collection point: before administration, 5 min, 15 min, 30 min, 1 h, 2 h, 4 h, 8 h, 12 h, 24 h after administration. […]
Readout: AUC(0-t)
I'd appreciate it if you wrote the number followed by its unit.

{"Compound structure": "NC1CN(c2nc(N3CCS(=O)(=O)c4ccccc4C3)nc3ccc(C(F)F)cc23)C1", "AUC(0-t)": "1010 ng·h/mL"}

Kindly consider the entry below.
Item under review: NC1(CNc2nc(N3CCS(=O)(=O)c4ccccc4C3)nc3ccc(C(F)F)cc23)COC1 . Reported AUC(0-t)?
573 ng·h/mL

* * *

Could you please report measured Vd for the items listed next?
assay: Pharmacokinetics in ICR mice, plasma drug concentrations; format: in vivo; details: ICR, iv; i.v. 2 mg/kg, mouse plasma; read-out: Vss
Numbers only, in L/kg.

// input: 2 compounds below; output: Vd for each
1. NC1(CNc2nc(N3CCS(=O)(=O)c4ccccc4C3)nc3ccc(C(F)F)cc23)COC1
2. NC1CN(c2nc(N3CCS(=O)(=O)c4ccccc4C3)nc3ccc(C(F)F)cc23)C1

[3.33, 13.1]

* * *

assay: Pharmacokinetics in ICR mice, plasma drug concentrations; assay type: in vivo; conditions: mouse, plasma, iv; i.v. 2 mg/kg, 2 hour, ICR mice
Readout: concentration at 2 h (µg/mL)
Numbers only, in µg/mL.

{"Compound structure": "NC1(CNc2nc(N3CCS(=O)(=O)c4ccccc4C3)nc3ccc(C(F)F)cc23)COC1", "Readout": "concentration at 2 h", "Reading": 0.035}

Item under review: NC1CN(c2nc(N3CCS(=O)(=O)c4ccccc4C3)nc3ccc(C(F)F)cc23)C1 . Reported concentration at 2 h?
0.0439

* * *

assay: Pharmacokinetics in ICR mice, plasma drug concentrations; format: in vivo; details: mouse, plasma, iv; i.v. 2 mg/kg, 0.083 hour, ICR mice
Could you please report measured concentration at 0.083 h for the items listed next?
I'd appreciate it if you wrote the number followed by its unit.

{"Compound structure": "NC1(CNc2nc(N3CCS(=O)(=O)c4ccccc4C3)nc3ccc(C(F)F)cc23)COC1", "concentration at 0.083 h": "815 ng/mL"}

Item under review: NC1CN(c2nc(N3CCS(=O)(=O)c4ccccc4C3)nc3ccc(C(F)F)cc23)C1 . Reported concentration at 0.083 h?
38 ng/mL

* * *

assay: Pharmacokinetics in ICR mice, plasma drug concentrations; format: in vivo; details: mouse, plasma, po; p.o. 10 mg/kg, 0.5 hour, ICR mice
Readout: concentration at 0.5 h

{"Compound structure": "NC1CN(c2nc(N3CCS(=O)(=O)c4ccccc4C3)nc3ccc(C(F)F)cc23)C1", "Reading": "407 ng/mL"}

Kindly consider the entry below.
Item under review: NC1(CNc2nc(N3CCS(=O)(=O)c4ccccc4C3)nc3ccc(C(F)F)cc23)COC1 . Reported concentration at 0.5 h?
287 ng/mL

* * *

experiment: Pharmacokinetics in ICR mice, plasma drug concentrations; type: in vivo; details: mouse, plasma, iv; i.v. 2 mg/kg, 0.5 hour, ICR mice
Could you please report measured concentration at 0.5 h for the items listed next?
Give bare numbers, in ng/mL.

{"Compound": "NC1CN(c2nc(N3CCS(=O)(=O)c4ccccc4C3)nc3ccc(C(F)F)cc23)C1 [Example 4]", "concentration at 0.5 h, ng/mL": 30.7}

Kindly consider the entry below.
Item under review: NC1(CNc2nc(N3CCS(=O)(=O)c4ccccc4C3)nc3ccc(C(F)F)cc23)COC1 [Example 7] . Reported concentration at 0.5 h?
335

* * *

assay: Pharmacokinetics in ICR mice, plasma drug concentrations; format: in vivo; conditions: ICR, iv; i.v. 2 mg/kg, mouse plasma
Could you please report measured clearance for the items listed next?
Give bare numbers, in mL/min/kg.

{"Compound structure": "NC1(CNc2nc(N3CCS(=O)(=O)c4ccccc4C3)nc3ccc(C(F)F)cc23)COC1", "Readout": "clearance", "Reading": 57.6}

Kindly consider the entry below.
Item under review: NC1CN(c2nc(N3CCS(=O)(=O)c4ccccc4C3)nc3ccc(C(F)F)cc23)C1 . Reported clearance?
32.8

* * *

test: Pharmacokinetics in ICR mice, plasma drug concentrations; format: in vivo; settings: ICR, iv; i.v. 2 mg/kg, mouse plasma
Readout: AUC(0-inf) (ng·h/mL)
Numbers only, in ng·h/mL.

{"Compound structure": "NC1(CNc2nc(N3CCS(=O)(=O)c4ccccc4C3)nc3ccc(C(F)F)cc23)COC1", "Unit descriptor": "ng·h/mL", "AUC(0-inf)": 579}

Item under review: NC1CN(c2nc(N3CCS(=O)(=O)c4ccccc4C3)nc3ccc(C(F)F)cc23)C1 . Reported AUC(0-inf)?
1010

* * *

experiment: Pharmacokinetics in ICR mice, plasma drug concentrations; type: in vivo; settings: mouse, plasma, iv; i.v. 2 mg/kg, 4 hour, ICR mice
Readout: concentration at 4 h (ng/mL)
Numbers only, in ng/mL.

{"Compound structure": "NC1(CNc2nc(N3CCS(=O)(=O)c4ccccc4C3)nc3ccc(C(F)F)cc23)COC1", "concentration at 4 h / ng/mL": 12.3}

Kindly consider the entry below.
Item under review: NC1CN(c2nc(N3CCS(=O)(=O)c4ccccc4C3)nc3ccc(C(F)F)cc23)C1 . Reported concentration at 4 h?
82.4
